# System name: T1, HCMV pp65 (pp65 495) peptide on HLA-A*02:01 (human)
# T1 peptide: NLVPMVATV
# Assay name: cytokine release
Readout type: binding result

[[record]]
binder = "I8A4 (TCR, V domains shown) Valpha: LAKTTQPPSMEAYEGQEVNVSCSHTNIATSEYIYWYRQVPHQGPQFIIQGYKDYVVNEVASLFISADRKLSTLSLPWVSLRDAAVYYCIVTDMETGGYKVVFGSGTRLLVSP Vbeta: EAAVTQSPRNKVAVTGGKVTLSCNQTNNHNNMYWYRQDTGHGLRLIHYSYGAGSTEKGDIPDGYKASRPSQENFSLILELATPSQTSVYFCASASTGASSYEQYFGPGTRLTVL"
readout_type = "binding result"
assay_result = "no recognition"

[[record]]
binder = "I4G7 alpha chain with I4G7 beta chain1 (TCR, V domains shown) Valpha: AQSVTQPDARVTVSEGASLQLRCKYSYFGTPYRIEFSGREFALLFWYVQYPRQGLQLLLKYYPGDPVVQGVNGFEAEFSKSNSSFHLRKASVHWSDWAVYFCAVSRDTNTGKLTFGDGTVLTVKP Vbeta: EAAVTQSPRNKVAVTGGKVTLSCNQTNNHNNMGELNLAAANSPLYWYRQDTGHGLRLIHYSYVADSTEKGDIPDGYKASRPSQENFSLILELASLSQTAVYFCASSGGLGGHTLYFGAGTRLSVL"
readout_type = "binding result"
assay_result = "no recognition"

[[record]]
binder = "I4G7 alpha chain with I4G7 beta chain2 (TCR, V domains shown) Valpha: AQSVTQPDARVTVSEGASLQLRCKYSYFGTPYLFWYVQYPRQGLQLLLKYYPGDPVVQGVNGFEAEFSKSNSSFHLRKASVHWSDWAVYFCAVSRDTNTGKLTFGDGTVLTVKP Vbeta: EAAVTQSPRNKVTVTGGNVTLSCRQTNSHNYMYWYRQDTGHGLRLIHYSYGAGNLRIGDVPDGYKATRTTQEDFFLLLELASPSQTSLYFCASSDYRDSGNTLYFGEGSRLIVV"
readout_type = "binding result"
assay_result = "no recognition"

[[record]]
binder = "I8H4 (TCR, V domains shown) Valpha: AQKVTQTQTSISVVEKTTVTMDCVYETRDSSYFLFWYKQTASGEIVFLIRQDSYKKENATVGHYSLNFQKPKSSIGLIITATQIEDSAVYFCAMREITGNTGKLIFGLGTTLQVQP Vbeta: EAAVTQSPRNKVTVTGGNVTLSCRQTNSHNYMYWYRQDTGHGLRLIHYSYGAGNLRIGDVPDGYKATRTTQEDFFLLLELASPSQTSLYFCASSDALGGEDAEQFFGPGTRLTVL"
readout_type = "binding result"
assay_result = "no recognition"

